system: NY (Osteosarcoma); test: combination Emax (second highest fraction inhibited in the dose matrix, 72 h); higher = more inhibition; extreme values may be limits of the assay
Listed next: entries and their corresponding combination Emax.
Hey, just send me the number, nothing else.

These solved cases illustrate the format of a correct answer.
>  <molecule>
C[C@@H]1COCCN1c1cc(C2([S@](C)(=N)=O)CC2)nc(-c2ccnc3[nH]ccc23)n1 [AZD6738] + Nc1ccn([C@@H]2O[C@H](CO)[C@@H](O)C2(F)F)c(=O)n1 [Gemcitabine] (first compound max 10 µM, 7x7, partner max 0.3 µM)

>  <combination Emax>
0.777

$$$$
>  <molecule>
Cc1cc2ncnn2cc1Nc1ncc2c(n1)n(C1CCOCC1)c(=O)n2C [AZD7648] + O=C(c1cc(Cc2n[nH]c(=O)c3ccccc23)ccc1F)N1CCN(C(=O)C2CC2)CC1 [Olaparib] (first compound max 10 µM, 7x7, partner max 10 µM)

>  <combination Emax>
0.14

$$$$
>  <molecule>
CN(C)CCCOc1ccc(-c2ccc3ncc4c(c3c2)n(C2CCOCC2)c(=O)n4C)cn1 [AZD0156] + C[C@@H]1COCCN1C2=NC(=NC(=C2)C3(CC3)[S@](=N)(=O)C)C4=C5C=CNC5=NC=C4 [AZD6738] (first compound max 1 µM, 7x7, partner max 10 µM)

>  <combination Emax>
0.555

$$$$

Note to self: combination Emax recorded for CCN(CCO)CCCOc1ccc2c(Nc3cc(CC(=O)Nc4cccc(F)c4)[nH]n3)ncnc2c1 [AZD2811] + O=C(c1cc(Cc2n[nH]c(=O)c3ccccc23)ccc1F)N1CCN(C(=O)C2CC2)CC1 [Olaparib] (first compound max 1 µM, 7x7, partner max 10 µM) was 0.169

Note to self: combination Emax recorded for CN(CCO)CC[C@H](CSc1ccccc1)Nc1ccc(S(=O)(=O)NC(=O)c2ccc(N3CCC([C@@H](O)c4ccccc4-c4ccc(Cl)cc4)CC3)cc2)cc1S(=O)(=O)C(F)(F)F [AZD4320] + Cc1cc2ncnn2cc1Nc1ncc2c(n1)n(C1CCOCC1)c(=O)n2C [AZD7648] (first compound max 1 µM, 7x7, partner max 10 µM) was 0.156

Note to self: combination Emax recorded for CC1(C)CCC(CN2CCN(c3ccc(C(=O)NS(=O)(=O)c4ccc(NCC5CCOCC5)c([N+](=O)[O-])c4)c(Oc4cnc5[nH]ccc5c4)c3)CC2)=C(c2ccc(Cl)cc2)C1 [Venetoclax] + CCN(CCO)CCCOc1ccc2c(Nc3cc(CC(=O)Nc4cccc(F)c4)[nH]n3)ncnc2c1 [AZD2811] (first compound max 1 µM, 7x7, partner max 1 µM) was 0.616

---

system: TT (Thyroid Gland Carcinoma); assay: combination Emax (second highest fraction inhibited in the dose matrix, 72 h); higher = more inhibition; extreme values may be limits of the assay
Rule: combination Emax of 0.5 or more gives 1 (yes); anything lower gives 0 (no).

These recorded examples may help you get a feel for the data.
>  <compound>
COc1cccc(OCCCN)c1-c1cc(Nc2cnc(C#N)cn2)n[nH]1 [Prexasertib] + C[C@@H]1COCCN1C2=NC(=NC(=C2)C3(CC3)[S@](=N)(=O)C)C4=C5C=CNC5=NC=C4 [AZD6738] (first compound max 1 µM, 7x7, partner max 10 µM)

>  <label class>
1 (yes)

$$$$
>  <compound>
CN(CCO)CC[C@H](CSc1ccccc1)Nc1ccc(S(=O)(=O)NC(=O)c2ccc(N3CCC([C@@H](O)c4ccccc4-c4ccc(Cl)cc4)CC3)cc2)cc1S(=O)(=O)C(F)(F)F [AZD4320] + C=CCn1c(=O)c2cnc(Nc3ccc(N4CCN(C)CC4)cc3)nc2n1-c1cccc(C(C)(C)O)n1 [AZD1775] (first compound max 1 µM, partner max 1 µM)

>  <label class>
0 (no)

$$$$
>  <compound>
CC(=O)c1c(C)c2cnc(Nc3ccc(N4CCNCC4)cn3)nc2n(C2CCCC2)c1=O [Palbociclib] + Cn1cnc2c(F)c(Nc3ccc(Br)cc3Cl)c(C(=O)NOCCO)cc21 [Selumetinib] (first compound max 10 µM, 7x7, partner max 10 µM)

>  <label class>
0 (no)

$$$$

Q: Has CC(=O)Nc1cccc(-n2c(=O)n(C3CC3)c(=O)c3c(Nc4ccc(I)cc4F)n(C)c(=O)c(C)c32)c1 [Trametinib] + Cc1nc(-c2cn3c(n2)-c2ccc(-c4cnn(C(C)(C)C(N)=O)c4)cc2OCC3)n(C(C)C)n1 [Taselisib] (first compound max 1 µM, 7x7, partner max 10 µM) a recorded combination Emax greater than or equal to 0.5?
Result: 1 (yes)

Q: Has COc1cccc(OCCCN)c1-c1cc(Nc2cnc(C#N)cn2)n[nH]1 [Prexasertib] + C=CCn1c(=O)c2cnc(Nc3ccc(N4CCN(C)CC4)cc3)nc2n1-c1cccc(C(C)(C)O)n1 [AZD1775] (first compound max 1 µM, partner max 1 µM) a recorded combination Emax greater than or equal to 0.5?
Result: 1 (yes)

Q: Has COc1cccc(OCCCN)c1-c1cc(Nc2cnc(C#N)cn2)n[nH]1 [Prexasertib] + CN(C)CCCOc1ccc(-c2ccc3ncc4c(c3c2)n(C2CCOCC2)c(=O)n4C)cn1 [AZD0156] (first compound max 1 µM, 7x7, partner max 1 µM) a recorded combination Emax greater than or equal to 0.5?
Result: 1 (yes)

---

system: ARH-77 (Non-Cancerous); assay: Bliss excess, mean over the matrix (fraction); higher = more synergy;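 further: after 72 h of two-drug dosing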
readout kind: Bliss excess
Hey, just send me the number, nothing else.

>  <molecule>
CC1(C)CCC(CN2CCN(c3ccc(C(=O)NS(=O)(=O)c4ccc(NCC5CCOCC5)c([N+](=O)[O-])c4)c(Oc4cnc5[nH]ccc5c4)c3)CC2)=C(c2ccc(Cl)cc2)C1 [Venetoclax] + Cc1cc2ncnn2cc1Nc1ncc2c(n1)n(C1CCOCC1)c(=O)n2C [AZD7648] (first compound max 1 µM, 7x7, partner max 10 µM)

>  <study target>
ARH-77 (Non-Cancerous);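 further: after 72 h of two-drug dosing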

>  <recorded number>
0.0245

$$$$
>  <molecule>
COc1nnc2ccc(N3CCC(c4ccc(OCCN5CCN(C)C(=O)[C@H]5C)cc4)CC3)nn12 [AZD5153] + Cc1c2c(nn1C)CSCc1cc(n(C)n1)CSc1cc(c3ccccc3c1)OCCCc1c(C(=O)O)n(C)c3c-2c(Cl)ccc13 [AZD5991] (first compound max 1 µM, 7x7, partner max 1 µM)

>  <study target>
ARH-77 (Non-Cancerous);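 further: after 72 h of two-drug dosing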

>  <recorded number>
-0.04

$$$$
>  <molecule>
COc1nnc2ccc(N3CCC(c4ccc(OCCN5CCN(C)C(=O)[C@H]5C)cc4)CC3)nn12 [AZD5153] + Cn1cnc2c(F)c(Nc3ccc(Br)cc3Cl)c(C(=O)NOCCO)cc21 [Selumetinib] (first compound max 1 µM, 7x7, partner max 10 µM)

>  <study target>
ARH-77 (Non-Cancerous);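 further: after 72 h of two-drug dosing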

>  <recorded number>
-0.0251

$$$$
>  <molecule>
CCc1c2c(nc3ccc(O)cc13)-c1cc3c(c(=O)n1C2)COC(=O)[C@]3(O)CC [SN-38] + O=C(c1cc(Cc2n[nH]c(=O)c3ccccc23)ccc1F)N1CCN(C(=O)C2CC2)CC1 [Olaparib] (first compound max 0.3 µM, 7x7, partner max 10 µM)

>  <study target>
ARH-77 (Non-Cancerous);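 further: after 72 h of two-drug dosing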

>  <recorded number>
0.0446

$$$$

Note to self: Bliss excess recorded for Cc1c2c(nn1C)CSCc1cc(n(C)n1)CSc1cc(c3ccccc3c1)OCCCc1c(C(=O)O)n(C)c3c-2c(Cl)ccc13 [AZD5991] + CC1(C)CCC(CN2CCN(c3ccc(C(=O)NS(=O)(=O)c4ccc(NCC5CCOCC5)c([N+](=O)[O-])c4)c(Oc4cnc5[nH]ccc5c4)c3)CC2)=C(c2ccc(Cl)cc2)C1 [Venetoclax] (first compound max 1 µM, 7x7, partner max 1 µM) was 0.0087

Note to self: Bliss excess recorded for Cc1cc2ncnn2cc1Nc1ncc2c(n1)n(C1CCOCC1)c(=O)n2C [AZD7648] + C=CCn1c(=O)c2cnc(Nc3ccc(N4CCN(C)CC4)cc3)nc2n1-c1cccc(C(C)(C)O)n1 [AZD1775] (first compound max 10 µM, partner max 1 µM) was -0.0575

Note to self: Bliss excess recorded for Cn1cnc2c(F)c(Nc3ccc(Br)cc3Cl)c(C(=O)NOCCO)cc21 [Selumetinib] + C[C@@H]1COCCN1C2=NC(=NC(=C2)C3(CC3)[S@](=N)(=O)C)C4=C5C=CNC5=NC=C4 [AZD6738] (first compound max 10 µM, 7x7, partner max 10 µM) was 0.029

Note to self: Bliss excess recorded for CN(C)CCCOc1ccc(-c2ccc3ncc4c(c3c2)n(C2CCOCC2)c(=O)n4C)cn1 [AZD0156] + C=CCn1c(=O)c2cnc(Nc3ccc(N4CCN(C)CC4)cc3)nc2n1-c1cccc(C(C)(C)O)n1 [AZD1775] (first compound max 1 µM, partner max 1 µM) was -0.0207

Note to self: Bliss excess recorded for Cc1c2c(nn1C)CSCc1cc(n(C)n1)CSc1cc(c3ccccc3c1)OCCCc1c(C(=O)O)n(C)c3c-2c(Cl)ccc13 [AZD5991] + Cc1cc2ncnn2cc1Nc1ncc2c(n1)n(C1CCOCC1)c(=O)n2C [AZD7648] (first compound max 1 µM, 7x7, partner max 10 µM) was -0.024

Note to self: Bliss excess recorded for NC1(C(=O)N[C@@H](CCO)c2ccc(Cl)cc2)CCN(c2ncnc3[nH]ccc23)CC1 [Capivasertib] + Cn1cnc2c(F)c(Nc3ccc(Br)cc3Cl)c(C(=O)NOCCO)cc21 [Selumetinib] (first compound max 10 µM, 7x7, partner max 10 µM) was 0.0614

Where do these numbers come from? They come from the supplement of paper PMC11061612.
